# experimental.target: T1, Cynomolgus CXCR2 (cynomolgus, UniProt Q28519 3-353 (rhesus entry))
# T1 chain: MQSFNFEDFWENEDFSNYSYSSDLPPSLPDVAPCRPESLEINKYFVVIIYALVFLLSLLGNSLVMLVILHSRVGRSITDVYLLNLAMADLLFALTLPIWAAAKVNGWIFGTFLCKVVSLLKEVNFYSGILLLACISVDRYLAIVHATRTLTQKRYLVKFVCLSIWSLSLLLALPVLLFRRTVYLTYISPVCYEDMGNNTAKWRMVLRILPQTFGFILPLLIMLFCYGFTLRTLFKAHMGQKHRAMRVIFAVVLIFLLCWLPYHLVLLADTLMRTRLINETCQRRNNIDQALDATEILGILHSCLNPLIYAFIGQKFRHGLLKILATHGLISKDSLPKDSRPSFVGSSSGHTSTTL
# method: cell-based or functional assay
quantity.measured: FLIPR IC50 (GRO-α induced calcium release) (nM)

- CXCR20023 (bispecific antibody, Two different VHH joined by a GlySer linker; also called 163D2-35GS-163E3; not shown: C-terminal c-myc tag and His6 tag coded by pAX100) EVQLVESGGGLVQAGGSLRLSCAASGRTFSDYAMGWFRQAPGKEREFVAAITWNGGRVFYTASVKGRFTISRDNAKNTMYLQMNSLKPEDTAVYYCAADKDRRTDYLGHPVAYWGQGTQVTVSSGGGGSGGGGSGGGGSGGGGSGGGGSGGGGSGGGGSEVQLVESGGGLVQPGGSLRLSCVASGRIFSSNAMGWFRQAPGKEREFVAAITWRSGGSAYYADSAKGRFTISRDNAKNTVYLQMNSLKPEDTAVYYCAAGGSSWLSFPPDYWGQGTQVTVSS: 12
